Origin of values: paper PMC9621233

Recorded Ki values for a group of molecules are listed next.
Molecular target: MscCA
Construct: recombinant beta-CA, obtained in-house; earlier published as SauCA
Assay: stopped-flow CO2 hydration assay, phenol red
Format: biochemical, Mammaliicoccus sciuri
Details: […] TRIS pH […] Na2SO4, […] h preincubation, room temperature; read-out: KI (nM)^a / MscCA (β-CA)
Quick note: give the figure in nM, leave out the unit.

Some solved entries appear below for comparison.
| molecule | study target | recorded metric | value unit | observed value |
| --- | --- | --- | --- | --- |
| CN(C#N)c1ccc(S(N)(=O)=O)cc1 [compound 8, 4-(N-Methylcyanamido)benzenesulfonamide] | MscCA | Ki | nM | 1580 |
| N#CN(c1ccc(S(N)(=O)=O)cc1)C1CCCCC1 | MscCA | Ki | nM | 5360 |
| N#CN(Cc1ccc(Br)cc1)c1ccc(S(N)(=O)=O)cc1 | MscCA | Ki | nM | 9590 |
| CCCCCCCCCCCCCCCCCCN(C#N)c1ccc(S(N)(=O)=O)cc1 | MscCA | Ki | nM | 9170 |
| CCCCN(C#N)c1ccc(S(N)(=O)=O)cc1 [compound 10, 4-(N-Butylcyanamido)benzenesulfonamide] | MscCA | Ki | nM | 4480 |

Could you now consider this next molecule?
Task item: Which Ki value belongs to CCCCCCN(C#N)c1ccc(S(N)(=O)=O)cc1 [compound 11, 4-(N-Hexylcyanamido)benzenesulfonamide] ?
Reply: 6880
